# Read-out: Monokine induced gamma interferon (MIG), CXCL9 (gene 4283)
# Assay text: BSK_SAg_MIG: BioMAP Diversity Plus: SAg Assay for Monokine induced gamma interferon (MIG) Biomarker Activity (AID 2283092)
# Settings: primary human HUVEC with PBMC; actives raise or lower the signal
Calls of active or inactive are those of the source. Rule for the calls: active = hit-call score of the fitted dose curve at least 0.9, where 1 is the maximum; inactive = score below 0.9.
Classes used: active, inactive

[[record]]
structure_as_smiles = "CC(C)c1ccc(CO)cc1"
label = "inactive"

[[record]]
structure_as_smiles = "Nc1cccc2ccccc12"
label = "inactive"

[[record]]
structure_as_smiles = "O=C(OC1CCCCC1)c1ccccc1C(=O)OC1CCCCC1"
label = "active"

[[record]]
structure_as_smiles = "Cc1ccccc1N"
label = "inactive"

[[record]]
structure_as_smiles = "ClCC(Cl)CCl"
label = "inactive"

[[record]]
structure_as_smiles = "COc1cc(-c2ccc(N)c(OC)c2)ccc1N"
label = "inactive"

[[record]]
structure_as_smiles = "ClC1=C(Cl)[C@]2(Cl)[C@H]3[C@H]([C@H]4C=C[C@H]3C4)[C@@]1(Cl)C2(Cl)Cl"
label = "inactive"

[[record]]
structure_as_smiles = "CC(=O)[O][Hg][c]1ccccc1"
label = "active"

[[record]]
structure_as_smiles = "COP(=S)(OC)Oc1ccc(S(=O)(=O)N(C)C)cc1"
label = "inactive"

[[record]]
structure_as_smiles = "Nc1ccc(-c2ccc(N)c(Cl)c2)cc1Cl"
label = "inactive"

[[record]]
structure_as_smiles = "NC(=S)Nc1ccccc1"
label = "inactive"

[[record]]
structure_as_smiles = "Oc1ccc(-c2ccccc2)cc1"
label = "inactive"

[[record]]
structure_as_smiles = "CCCCCCCCc1ccc(O)cc1"
label = "active"

[[record]]
structure_as_smiles = "O=[N+]([O-])c1ccc(O)c([N+](=O)[O-])c1"
label = "inactive"


* * *

# Assay text: APR_HepG2_CellLoss_24hr: Apredica 24-hour HepG2 Assay for Cell Loss (AID 2282908)
# Settings: high-content imaging
Active and inactive are the calls of the source. The calls were made as follows: active = hit-call score of the fitted dose curve at least 0.9, where 1 is the maximum; inactive = score below 0.9.
Outcome codes: active, inactive

[[record]]
molecule = "NC(=O)O"
label = "active"

[[record]]
molecule = "CC(C)(C)c1cc(O)ccc1O"
label = "active"

[[record]]
molecule = "O=C1C2(Cl)C3(Cl)C4(Cl)C(Cl)(Cl)C5(Cl)C3(Cl)C1(Cl)C5(Cl)C24Cl (configuration not stated)"
label = "active"

[[record]]
molecule = "CC(=O)[O][Hg][c]1ccccc1"
label = "active"

[[record]]
molecule = "C[C@]12CCC(=O)C[C@@H]1CC[C@@H]1[C@@H]2CC[C@]2(C)[C@@H](O)CC[C@@H]12"
label = "inactive"

[[record]]
molecule = "Cn1sc(Cl)cc1=O"
label = "active"

[[record]]
molecule = "ClC1(Cl)C2(Cl)C3(Cl)C4(Cl)C(Cl)(Cl)C5(Cl)C3(Cl)C1(Cl)C5(Cl)C24Cl (configuration not stated)"
label = "inactive"

[[record]]
molecule = "CCN1CCC2(CC1)COc1cc3c(cc12)N(C(=O)c1ccc(-c2ccc(-c4nnc(C)o4)cc2C)cc1)CC3"
label = "active"

[[record]]
molecule = "C[C@@H]1C[C@@H]([C@H](O)CC2CC(=O)NC(=O)C2)C(=O)[C@@H](C)C1"
label = "active"

[[record]]
molecule = "CC(C)(OO)c1ccccc1"
label = "active"

[[record]]
molecule = "Cc1ccccc1N"
label = "inactive"

[[record]]
molecule = "C=C(C)C(=O)[O][Sn]([CH2]CCC)([CH2]CCC)[CH2]CCC"
label = "active"


* * *

# Read-out: Glutamate-cysteine ligase catalytic (GCLC), GCLC (gene 2729)
# Assay text: LTEA_HepaRG_GCLC: Life Technologies and Expression Analysis (LTEA) Assay for Glutamate-cysteine ligase catalytic (GCLC) using HepaRG (AID 2283498)
# Settings: mRNA level, 48 h; actives raise or lower the signal
# Protocol: LTEA_HepaRG is a cell based, multiplexed-readout assay that uses HepaRG, a human liver cell line, with measurements taken at 48 hours after chemical dosing on a 96-well plate.LTEA_HepaRG_GCLC is one of 102 assay component(s) measured in the LTEA HepaRG cell culture assay. It is a marker of Oxidative Stress.Data from the assay component LTEA_HepaRG_GCLC was analyzed into 1 endpoint. […]
The source made the active and inactive calls. The calls were made as follows: active = hit-call score of the fitted dose curve at least 0.9, where 1 is the maximum; inactive = score below 0.9.
Outcomes: active, inactive

[[record]]
molecule = "Oc1cccc2cccnc12"
label = "inactive"

[[record]]
molecule = "ClC1(Cl)C2(Cl)C3(Cl)C4(Cl)C(Cl)(Cl)C5(Cl)C3(Cl)C1(Cl)C5(Cl)C24Cl (stereo not drawn)"
label = "inactive"

[[record]]
molecule = "CC(C)(OO)c1ccccc1"
label = "inactive"

[[record]]
molecule = "CCOP(=S)(OCC)Oc1nc(Cl)c(Cl)cc1Cl"
label = "inactive"

[[record]]
molecule = "C=CC(=O)OCCCCCC(C)C"
label = "inactive"

[[record]]
molecule = "CCC(=O)C(CC(C)N(C)C)(c1ccccc1)c1ccccc1 (stereo not drawn)"
label = "inactive"

[[record]]
molecule = "NC(=O)O"
label = "inactive"

[[record]]
molecule = "C[C@@H]1C[C@@H]([C@H](O)CC2CC(=O)NC(=O)C2)C(=O)[C@@H](C)C1"
label = "active"

[[record]]
molecule = "O=C(Nc1ccc2[nH]ccc2c1)c1cc2cc(F)ccc2n1Cc1cccc(F)c1"
label = "active"

[[record]]
molecule = "O=C1C2(Cl)C3(Cl)C4(Cl)C(Cl)(Cl)C5(Cl)C3(Cl)C1(Cl)C5(Cl)C24Cl (stereo not drawn)"
label = "active"

[[record]]
molecule = "O=c1[nH]c(=O)[nH]c(=O)[nH]1"
label = "inactive"

[[record]]
molecule = "O=C(O)C(Cl)(Cl)Cl"
label = "inactive"

[[record]]
molecule = "ClCC(Cl)CCl"
label = "inactive"


* * *

# Assay text: APR_HepG2_MitoticArrest_72hr: Apredica 72-hour HepG2 Assay for Mitotic Arrest (AID 2282918)
# Settings: high-content imaging, actives raise or lower the signal
Calls of active or inactive are those of the source. Rule for the calls: active = hit-call score of the fitted dose curve at least 0.9, where 1 is the maximum; inactive = score below 0.9.
Labels: active, inactive

[[record]]
molecule = "CC(C)(C)c1cc(O)ccc1O"
label = "inactive"

[[record]]
molecule = "CCC(=O)C(CC(C)N(C)C)(c1ccccc1)c1ccccc1 (centres undefined)"
label = "active"

[[record]]
molecule = "NC(=O)O"
label = "active"

[[record]]
molecule = "ClC1(Cl)C2(Cl)C3(Cl)C4(Cl)C(Cl)(Cl)C5(Cl)C3(Cl)C1(Cl)C5(Cl)C24Cl (centres undefined)"
label = "inactive"

[[record]]
molecule = "C[C@]12CCC(=O)C[C@@H]1CC[C@@H]1[C@@H]2CC[C@]2(C)[C@@H](O)CC[C@@H]12"
label = "inactive"

[[record]]
molecule = "O=C(O)C(F)(F)C(F)(F)C(F)(F)C(F)(F)C(F)(F)C(F)(F)F"
label = "active"

[[record]]
molecule = "O=C(O)C(F)(F)C(F)(F)C(F)(F)C(F)(F)C(F)(F)C(F)(F)C(F)(F)C(F)(F)C(F)(F)C(F)(F)F"
label = "active"

[[record]]
molecule = "Oc1cccc2cccnc12"
label = "active"

[[record]]
molecule = "C[C@@H]1C[C@@H]([C@H](O)CC2CC(=O)NC(=O)C2)C(=O)[C@@H](C)C1"
label = "active"

[[record]]
molecule = "CCC(C)(C)c1ccc(O)c(C(C)(C)CC)c1"
label = "active"

[[record]]
molecule = "CC(=O)[O][Hg][c]1ccccc1"
label = "active"

[[record]]
molecule = "Cc1ccccc1N"
label = "inactive"

[[record]]
molecule = "C=CC(=O)OCCCCCC(C)C"
label = "inactive"

[[record]]
molecule = "CC(C)(C)CC(C)(C)c1ccc(O)cc1"
label = "inactive"


* * *

# Target entity: Transcriptional activator Myb (Homo sapiens) (UniProt P10242)
# Sequence (P10242 whole entry, looked up): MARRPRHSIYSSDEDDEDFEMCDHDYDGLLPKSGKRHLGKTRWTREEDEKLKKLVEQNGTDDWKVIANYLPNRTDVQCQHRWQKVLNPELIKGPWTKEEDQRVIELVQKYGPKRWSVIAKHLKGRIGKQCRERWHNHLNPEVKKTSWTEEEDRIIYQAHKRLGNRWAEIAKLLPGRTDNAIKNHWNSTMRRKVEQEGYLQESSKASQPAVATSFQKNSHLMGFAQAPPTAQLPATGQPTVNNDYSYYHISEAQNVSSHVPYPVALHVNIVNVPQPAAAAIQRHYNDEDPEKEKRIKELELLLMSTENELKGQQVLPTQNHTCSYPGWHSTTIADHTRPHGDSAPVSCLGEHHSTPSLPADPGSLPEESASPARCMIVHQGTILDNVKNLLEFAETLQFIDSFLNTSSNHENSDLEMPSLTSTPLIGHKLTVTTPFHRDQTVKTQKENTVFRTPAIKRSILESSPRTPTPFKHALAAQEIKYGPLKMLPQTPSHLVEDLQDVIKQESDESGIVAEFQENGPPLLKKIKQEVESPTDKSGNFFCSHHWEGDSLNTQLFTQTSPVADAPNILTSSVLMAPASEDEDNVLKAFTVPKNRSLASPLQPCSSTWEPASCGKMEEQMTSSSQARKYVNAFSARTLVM
# Assay text: ATG_Myb_CIS: Attagene CIS-FACTORIAL HepG2 Assay for human Myeloblastosis (Myb) Proto-Oncogene Transcription Factor (AID 2282986)
# Settings: HepG2 Attagene CIS-FACTORIAL Myb reporter transcription; actives raise or lower the signal
Calls of active or inactive are those of the source. The calls were made as follows: active = hit-call score of the fitted dose curve at least 0.9, where 1 is the maximum; inactive = score below 0.9.
Possible outcomes: 1 (yes) for active, 0 (no) for inactive

[[record]]
compound = "COc1ccc(OC)c(C=O)c1"
label = "0 (no)"

[[record]]
compound = "COP(=S)(OC)Oc1ccc(S(=O)(=O)N(C)C)cc1"
label = "0 (no)"

[[record]]
compound = "O=c1[nH]c(=O)[nH]c(=O)[nH]1"
label = "0 (no)"

[[record]]
compound = "NNC(=S)NN"
label = "0 (no)"

[[record]]
compound = "Oc1ccc(-c2ccccc2)cc1"
label = "0 (no)"

[[record]]
compound = "CC(C)(C)CC(C)(C)c1ccc(O)cc1"
label = "0 (no)"

[[record]]
compound = "O=S(=O)(c1ccc(Cl)cc1)c1ccc(Cl)cc1"
label = "0 (no)"

[[record]]
compound = "C=C(C)C(=O)[O][Sn]([CH2]CCC)([CH2]CCC)[CH2]CCC"
label = "0 (no)"

[[record]]
compound = "CN(C)P(=O)(N(C)C)N(C)C"
label = "0 (no)"

[[record]]
compound = "COc1cc(-c2ccc(N)c(OC)c2)ccc1N"
label = "0 (no)"

[[record]]
compound = "C[C@H]1O[C@@H](O[C@H]2[C@@H](O)C[C@H](O[C@H]3[C@@H](O)C[C@H](O[C@H]4CC[C@@]5(C)[C@H](CC[C@@H]6[C@@H]5CC[C@]5(C)[C@@H](C7=CC(=O)OC7)CC[C@]65O)C4)O[C@@H]3C)O[C@@H]2C)C[C@H](O)[C@@H]1O"
label = "1 (yes)"

[[record]]
compound = "O=C(CCl)CCl"
label = "0 (no)"

[[record]]
compound = "O=C1C2(Cl)C3(Cl)C4(Cl)C(Cl)(Cl)C5(Cl)C3(Cl)C1(Cl)C5(Cl)C24Cl (configuration not stated)"
label = "0 (no)"

[[record]]
compound = "CCOP(OCC)OCC"
label = "0 (no)"

[[record]]
compound = "CC(C)(C)c1cc(O)ccc1O"
label = "0 (no)"

[[record]]
compound = "CC1(C)Cc2cccc(O)c2O1"
label = "0 (no)"

[[record]]
compound = "CCC(=O)c1ccccc1"
label = "0 (no)"

[[record]]
compound = "CNC"
label = "0 (no)"

[[record]]
compound = "O=[N+]([O-])c1c(Cl)c(Cl)cc(Cl)c1Cl"
label = "0 (no)"

[[record]]
compound = "CC(=O)[O][Hg][c]1ccccc1"
label = "0 (no)"

[[record]]
compound = "CCOP(=S)(OCC)Oc1ccc(S(C)=O)cc1 (configuration not stated)"
label = "0 (no)"

[[record]]
compound = "Oc1c(I)cc(I)cc1I"
label = "0 (no)"

[[record]]
compound = "COC(=O)c1sccc1S(=O)(=O)NC(=O)Nc1nc(C)nc(OC)n1"
label = "0 (no)"

[[record]]
compound = "CC(C)C1CCC(Cc2ccc(Cl)cc2)C1(O)Cn1cncn1 (configuration not stated)"
label = "0 (no)"

[[record]]
compound = "Cc1ccc(N)cc1Cl"
label = "0 (no)"

[[record]]
compound = "C[C@@H]1C[C@@H]([C@H](O)CC2CC(=O)NC(=O)C2)C(=O)[C@@H](C)C1"
label = "0 (no)"

[[record]]
compound = "CCOP(=S)(OCC)Oc1nc(Cl)c(Cl)cc1Cl"
label = "0 (no)"

